# PROTOCOL: small-molecule binders of probe aNOTCH2, primary screen, biochemical, small-molecule microarray, 635/667 nm fluorescence (AID 1121);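 note: score merges feature fluorescence read at 667 nm with its signal to noise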
# REPORTED_CONDITIONS: higher = more signal
Answer each item with its documented composite z-score.
The answer should be written as a number, with no unit following it.

Task: # lookup: composite z-score of CCC(CC)C(O)C1C=CC2C(=O)N(C)C(=O)C2N1N1CCCCC1 (configuration not stated)
Result: 0.0477

Task: # lookup: composite z-score of Cc1ccc(F)cc1S(=O)(=O)N[C@@H]1CCN(Cc2ccc3[nH]ccc3c2)C1
Result: -0.176

Task: # lookup: composite z-score of CC(=O)c1ccc(C(O)C2C=CC3C(=O)N(C)C(=O)C3N2NC(=O)OC(C)(C)C)cc1 (configuration not stated)
Result: 0.119

Task: # lookup: composite z-score of CCOC(=O)C1=CCC(c2cc3ccccc3[nH]2)N(S(=O)(=O)c2ccccc2[N+](=O)[O-])C1 (configuration not stated)
Result: -0.188

Task: # lookup: composite z-score of CC(C)(C)OC(=O)CC[C@]1(C(=O)N2CCOCC2)N=C(c2ccc(OCCCO)cc2)O[C@H]1c1ccccc1CN=[N+]=[N-]
Result: -0.0219

Task: # lookup: composite z-score of CN(C)CCCC[C@@H]1NC(=O)[C@@H]2C[C@H](C(=O)NCCCCCCNC(=O)CS)[C@H](c3cccc(OCCO)c3)N2C1=O
Result: -0.0649

Task: # lookup: composite z-score of COCCOC(=O)N1C(=O)[C@@]2(c3cc(C#Cc4ccc(OC)cc4)ccc31)[C@H](C(=O)N1CCCCCCC1)[C@H]1C(=O)O[C@H](c3ccccc3)[C@H](c3ccccc3)N1[C@@H]2c1ccccc1OCCO
Result: 0.793
